Test system: 282377-053-R-J1-PDC complex spheroids, viability;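 further: spheroids exposed to compounds for 7 days before readout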
Assay: Anticancer human tumor 282377-053-R-J1-PDC patient-derived colon adenocarcinoma cell line growth inhibition [GQUAD]
Details: curve of first compound; second compound 1 µM
# IC50 per record follows

compound: CC1COCCN1c1cc(C2(S(C)(=N)=O)CC2)nc(-c2ccnc3[nH]ccc23)n1 (stereo not given) + CN(C)c1ccc(Nc2c3ccc(NC(=O)CCN4CCCC4)cc3nc3cc(NC(=O)CCN4CCCC4)ccc23)cc1
IC50: > 10 µM

compound: COc1cc(C2c3cc4c(cc3C(OC3OC5COC(C)OC5C(O)C3O)C3COC(=O)C23)OCO4)cc(OC)c1O (stereo not given) + CN(C)c1ccc(Nc2c3ccc(NC(=O)CCN4CCCC4)cc3nc3cc(NC(=O)CCN4CCCC4)ccc23)cc1
IC50: > 10 µM

compound: O=C(c1cc(Cc2n[nH]c(=O)c3ccccc23)ccc1F)N1CCN(C(=O)C2CC2)CC1 + Cc1[nH]c2ccc(F)cc2c1-c1nc2c3cccnc3c3ncccc3c2[nH]1
IC50: > 10 µM

compound: CC(C)n1c(=O)n(C)c2cnc3cc(F)c(-c4ccc(OCCCN5CCCCC5)nc4)cc3c21 + CN(C)c1ccc(Nc2c3ccc(NC(=O)CCN4CCCC4)cc3nc3cc(NC(=O)CCN4CCCC4)ccc23)cc1
IC50: > 10 µM

Complete the entry with IC50 for CC1COCCN1c1cc(C2(O)CC3CCC(C2)O3)c2cnn(-c3ccn[nH]3)c2n1 (stereo not given) + Cc1cnc(CNC(=O)c2c(=O)c3ccc(N4CCCN(C)CC4)nc3n3c2sc2ccccc23)cn1
< 0.0316 µM
